# TARGET_OF_ASSAY: T1, huNav1.7α (human, UniProt Q15858 1-1988)
# T1 construct: HEK cells expressing the α subunit without β subunits; also called huNav1.7 (alpha-subunit); Human Nav1.7α
# TEST_NAME: binding FACS, HEK
pEC50: −log10 of the molar value.
Think of 8 as a floor: if pEC50 stands on it or above, it is met; beneath it, not met.

Look over these answered cases.
BINDER	CLASS
F010300659 (VHH, also called F0103275B05(S27P, I28V, S50Y, N53P, G55W, S56D, T57W, N93R, A94W)-FLAG3 + HIS6) VHH: EVQLVESGGGLVQPGGSLRLSCAASGPVFNINSMAWYRRAPGKQRELVAYSTPGWDWNYADSVKGRFTISRDNAKRVYLQMNSLTPEDTAVYYCRWLLQPSIYDISRTYWGQGTLVTVSS	met
65ASP (Fc fusion, also called F0103275B05-5GS-Fc; not shown: 5GS linker; Fc moiety) EVQLVESGGGLVQPGGSLRLSCAASGSIFNINSMAWYRRAPGKQRELVASSTNGGSTNYADSVKGRFTISRDNAKRVYLQMNSLTPEDTAVYYCNALLQPSIYDISRTYWGQGTLVTVSS	not met
66ASP (Fc fusion, also called F010300659-5GS-Fc; not shown: 5GS linker; Fc moiety) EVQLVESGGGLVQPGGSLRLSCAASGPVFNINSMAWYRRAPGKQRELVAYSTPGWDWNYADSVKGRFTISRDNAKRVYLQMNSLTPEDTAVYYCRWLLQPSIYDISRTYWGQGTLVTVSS	not met

Item F010301656 (VHH, also called F0103387G04(K33R, S50Y, S56D, N93R)-FLAG3-HIS6) VHH: EVQLVESGGGLAQPGGSLRLSCAASGPVFNINRMAWYRRAPGKQRELVAYVTPTGDISYTDSVKGRFTISRDGSKRWSLQMNSLTPEDTAVYYCRALLQPDSYSNTRTYWGQGTLVTVSS with pEC50 of 8 or above?
met
